Tested on: soybean (Glycine max L., var. Pella 86, SOY)
Assay: Post-emerge greenhouse test, crop damage rating
Assay type: in vivo
Details: 500 g al/ha, 14 days after application
We label by threshold. Values of SOY crop damage rating (0-100) strictly beneath 60 are Met. Values of 60 and up are Not met.

Compound | Label Value
N#Cc1ccccc1Oc1cc(-n2c(=O)n3n(c2=S)CCCC3)c(F)cc1Cl | Not met
O=C1C2CCCCN2C(=O)N1c1cc(Oc2ncccc2C(F)(F)F)c(Cl)cc1F (centres unmarked) | Met
Cn1c(C(F)(F)F)nc(-c2cc(Oc3ncccc3[N+](=O)[O-])c(Cl)cc2F)c1Cl | Not met
CCN1CC(=O)N(c2cc(Oc3ncccn3)c(Cl)cc2F)C1=O | Not met
Cc1nsc(Oc2cc(-n3nnn(CCCF)c3=O)c(F)cc2Cl)c1[N+](=O)[O-] | Met
O=c1n(CCCF)nnn1-c1cc(Oc2ncccc2[N+](=O)[O-])c(Cl)cc1Cl | Met
O=c1n(CCCF)nnn1-c1cc(Oc2ncccc2C(F)(F)F)c(Cl)cc1F | Met
